pKi for assorted molecules
target: Aromatase (Homo sapiens, UniProt P11511); assay: Time dependent inactivation of Cytochrome P450 19A1 was obtained by Kitz-Wilson plot
Sequence (P11511 whole entry): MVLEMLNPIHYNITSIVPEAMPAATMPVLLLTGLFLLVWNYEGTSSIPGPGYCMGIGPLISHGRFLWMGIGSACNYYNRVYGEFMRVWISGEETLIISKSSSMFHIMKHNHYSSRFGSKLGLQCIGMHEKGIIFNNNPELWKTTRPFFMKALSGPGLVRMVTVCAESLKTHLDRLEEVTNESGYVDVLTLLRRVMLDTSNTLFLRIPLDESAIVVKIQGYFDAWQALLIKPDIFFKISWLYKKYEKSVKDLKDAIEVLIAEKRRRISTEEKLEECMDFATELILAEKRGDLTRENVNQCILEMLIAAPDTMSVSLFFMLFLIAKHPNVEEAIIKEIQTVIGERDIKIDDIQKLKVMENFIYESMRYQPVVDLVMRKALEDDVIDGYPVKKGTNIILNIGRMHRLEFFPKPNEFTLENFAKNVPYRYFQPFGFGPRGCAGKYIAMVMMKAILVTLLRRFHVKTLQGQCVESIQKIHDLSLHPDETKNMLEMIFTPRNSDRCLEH
Value format note: pKi is -log10 of concentration (mol/L); just state the number.

These recorded examples may help you get a feel for the data.
[
  {
    "MOLECULE": "CC12CCC3C(C(=O)C=C4CCCCC43C)C1CCC2=O (stereo not given)",
    "ASSAY SYSTEM": "Aromatase (Homo sapiens, UniProt P11511)",
    "pKi": 6.82
  },
  {
    "MOLECULE": "CC12CCC3C(C(=O)C=C4CCCCC43C=O)C1CCC2=O (stereo not given)",
    "ASSAY SYSTEM": "Aromatase (Homo sapiens, UniProt P11511)",
    "pKi": 4.70
  },
  {
    "MOLECULE": "CC12CCC3C(C(=O)C=C4C=CCCC43C)C1CCC2=O (stereo not given)",
    "ASSAY SYSTEM": "Aromatase (Homo sapiens, UniProt P11511)",
    "pKi": 6.74
  }
]

The recorded pKi for CC12CCC3C(C(=O)C=C4CCCCC43CO)C1CCC2=O (stereo not given) is 4.96

The recorded pKi for entry CC12CCC3C4CCCCC4=CC(=O)C3C1CCC2=O (stereo not given) equals 5.59
